Every entry's value here was drawn from PubChem BioAssay AID1159580.

Measurement notes: chemical genetic growth profiling, strain panel (AID 1159580);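 further: tested at 20 µM; growth read once vehicle control cultures reached saturation at 30 °C; 1 = growth at the plate median or of vehicle wells; lower values mean less growth of the strain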
Assay conditions: S. cerevisiae deletion strains, growth OD, locus YML124C, strain tub3, hits give low values
The campaign covered roughly 5,500 compounds. About 2,000 (36%) were called active. Roughly 18% stayed inconclusive and do not appear here. The list shows a part of the results.
# note: boundary value 1 maps to condition not met; normalized growth below it maps to condition met

- Molecule: "COc1cc2c(cc1OC)[C@@H]1C(=O)c3ccc4oc(C(C)C)cc4c3O[C@@H]1CO2"
  Label: "condition not met"
- Molecule: "COc1ccc2c(c1)O[C@@H]1COc3cc(OC)c(OC)cc3[C@@H]1C2=O"
  Label: "condition met"
- Molecule: "CN(C)C(=S)SSC(=S)N(C)C"
  Label: "condition met"
- Molecule: "CC(C(=O)O)c1ccc(-c2ccccc2)c(F)c1 (stereo not given)"
  Label: "condition met"
- Molecule: "CC(=O)[C@H]1CCC2C3CCC4=CC(=O)CC[C@]4(C)C3CC[C@@]21C (stereo not given in full)"
  Label: "condition met"

Please determine if COc1cc2c(cc1OC)C1C(=O)c3c(O)cc4c(c3OC1CO2)C=CC(C)(C)O4 (stereo not given) is below 1 in terms of normalized growth.
condition not met

Bench note: check whether COc1cc(O)c(C(=O)/C=C/c2ccccc2)c(OC)c1 shows normalized growth below 1
condition met

---

Measurement notes: chemical genetic growth profiling, strain panel (AID 1159580);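 further: tested at 20 µM; growth read once vehicle control cultures reached saturation at 30 °C; 1 = growth at the plate median or of vehicle wells; lower values mean less growth of the strain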
Assay conditions: S. cerevisiae deletion strains, growth OD, locus YDR159W, strain sac3, hits give low values
In all, about 5,500 compounds went through this assay and about 2,000 (36%) were called active. Not shown: some 18% with an inconclusive outcome. The list shows a part of the results.
// values below are reported normalized growth

Here is how some molecules turned out for normalized growth.
- Molecule: "CC1CC2C3CC(F)C4=CC(=O)C=CC4(C)C3(F)C(O)CC2(C)C1(O)C(=O)CO (stereo not given)"
  Assay metric: "normalized growth"
  Observed: "1.01 (inactive)"
- Molecule: "ClC1=C(Cl)C2(Cl)C3C4C=CC(C4)C3C1(Cl)C2(Cl)Cl (stereo not given)"
  Assay metric: "normalized growth"
  Observed: "0.901 (inactive)"
- Molecule: "C=C1C2CC[C@H]3[C@]4(C)C[C@H](OC5OC(CO)C(OS(=O)(=O)O)C(OS(=O)(=O)O)C5OC(=O)CC(C)C)C[C@@H](C(=O)O)[C@H]4CC[C@]3(C2)[C@H]1O (stereo not given in full)"
  Assay metric: "normalized growth"
  Observed: "1.01 (inactive)"
- Molecule: "CO[C@H]1[C@H](O)[C@H](O[C@H]2CC[C@]3(C)C4CC[C@]5(C)C(C6=CC(=O)OC6)CC[C@]5(O)C4CC[C@@H]3C2)O[C@@H](C)[C@@H]1O (stereo not given in full)"
  Assay metric: "normalized growth"
  Observed: "0.997 (inactive)"
- Molecule: "CCCCCCNC(=O)n1cc(F)c(=O)[nH]c1=O"
  Assay metric: "normalized growth"
  Observed: "1.22 [resistant] (active)"

For CCN(CC)CCCC(C)Nc1ccnc2cc(Cl)ccc12 (stereo not given) , write its normalized growth.
1.06 (inactive)

Annotate the molecule CC1CC2C3CCC4=CC(=O)C=C[C@]4(C)[C@@]3(F)[C@@H](O)C[C@]2(C)[C@@]1(O)C(=O)CO (stereo not given in full) with its measured normalized growth.
1.01 (inactive)

Kindly indicate its recorded normalized growth. Item: COc1ccc2c(c1OC)C(=O)O[C@@H]2[C@H]1c2cc3c(cc2CCN1C)OCO3
0.991 (inactive)

Write down normalized growth measured for item CCOC(=O)c1c(C)cc(O)c(C=O)c1O
0.413 (active)
